System: 786-0 renal
Assay: NCI tumour cell line growth inhibition, 48 h
parameterMeasured: TGI

Worked cases, answers included:
{"compound": "COc1cc(-c2nccc3[nH]c(-c4cccc5[nH]ccc45)nc23)cc(OC)c1OC", "parameterMeasured": "TGI", "testResult": "2.92 µM"}
{"compound": "Cc1ccc(S(=O)(=O)Nc2cccc(C)c2C)cc1", "parameterMeasured": "TGI", "testResult": "> 100 µM"}
{"compound": "Cc1nn2c(=O)n(-c3cccc(-n4nnc5c(-c6ccccc6)c(C)nn5c4=O)c3C)nnc2c1-c1ccccc1", "parameterMeasured": "TGI", "testResult": "> 100 µM"}
{"compound": "Cc1ccn2c(-c3csc(Nc4cccc(O)c4)n3)c(C)nc2c1", "parameterMeasured": "TGI", "testResult": "8.81 µM"}
{"compound": "CC(=O)n1cc(CC(C)O)c(=O)[nH]c1=O (centres undefined)", "parameterMeasured": "TGI", "testResult": "> 100 µM"}

Give TGI for each listed item.
1. NC(=O)c1ccccc1NC(=O)C(=O)Nc1n[nH]c(N)n1
2. CN=c1ss/c(=N\C(=S)N(C)C)n1C1CCCCC1
3. c1ccc(N=C2C(=Nc3ccccc3)N(C3CCCCC3)C(=NC3CCCCC3)N2c2ccccc2)cc1

["> 100 µM", "> 10 µM", "> 100 µM"]

# map each compound to its TGI
1. CCOC(=O)C1=C(C)NC(C)=C(C(=O)OCC)C1c1cc(Br)c(O)c(OC)c1
2. OC1=CN=C(C2CC2)Oc2ccccc21
3. Cc1ccc2c(n1)C(=O)C(Cl)=C(Nc1ccc(N3CCN(C)CC3)cc1)C2=O
4. CC(C)CNC(=O)c1c(NC(=O)c2ccccc2)sc2[nH]c(=O)n(-c3ccccc3)c(=O)c12
5. CC(=O)C(CN(C)Cc1ccccc1)C(c1ccccc1)c1c(O)c2ccccc2oc1=O (centres undefined)
6. CC(=O)c1c2c(cc3c1CC1(C3)Cc3ccc4c(c3C1=O)CCC4)CCC2 (centres undefined)
7. CCCC1=NC(C(F)(F)F)(C(F)(F)F)N=C(N2CCOCC2)O1
8. Clc1ccc(/C=C/c2nc(-c3ccc(Cl)cc3)cn3c2nc2ccccc23)cc1

["18 µM", "> 100 µM", "3.1 µM", "53.6 µM", "> 100 µM", "> 100 µM", "> 100 µM", "> 100 µM"]

====

Kindly supply the reported GI50 values for the records listed here.
System: COLO 205 colon
Experiment: NCI tumour cell line growth inhibition, 48 h

{"compound": "COc1ccccc1N(C(C)=O)C1=C(Cl)C(=O)c2ccccc2C1=O", "GI50": "1.51 µM"}

Batch request: GI50 per item, same order as input.
1. Oc1[nH]c2ccc(Cl)cc2c1/C=c1/ccc2c(c1)N=C(c1ccc(C(F)(F)F)cc1)N=2
2. CC[C@@]1(O)C(=O)OCc2c1cc1n(c2=O)Cc2cc3c(Cl)c4c(cc3nc2-1)OCO4

1. 2.1 µM
2. 1.05 µM

Field: GI50. Fill in for each record below.
1. CC(N)CN.CC(N)CN.[Cl-].[O]=[Os+2]=[O] (stereo not given)
2. N#Cc1ccc(N2Cc3cc(Cl)ccc3OC3=C2C(=O)N(Cc2ccc(F)cc2)C3=O)cc1

1. 70.2 µM
2. 1.57 µM
